# target.or.system: PARP2 FL G338A (human (Homo sapiens), UniProt Q9UGN5 1-583, G338A)
# Sequence (Q9UGN5 whole entry G338A): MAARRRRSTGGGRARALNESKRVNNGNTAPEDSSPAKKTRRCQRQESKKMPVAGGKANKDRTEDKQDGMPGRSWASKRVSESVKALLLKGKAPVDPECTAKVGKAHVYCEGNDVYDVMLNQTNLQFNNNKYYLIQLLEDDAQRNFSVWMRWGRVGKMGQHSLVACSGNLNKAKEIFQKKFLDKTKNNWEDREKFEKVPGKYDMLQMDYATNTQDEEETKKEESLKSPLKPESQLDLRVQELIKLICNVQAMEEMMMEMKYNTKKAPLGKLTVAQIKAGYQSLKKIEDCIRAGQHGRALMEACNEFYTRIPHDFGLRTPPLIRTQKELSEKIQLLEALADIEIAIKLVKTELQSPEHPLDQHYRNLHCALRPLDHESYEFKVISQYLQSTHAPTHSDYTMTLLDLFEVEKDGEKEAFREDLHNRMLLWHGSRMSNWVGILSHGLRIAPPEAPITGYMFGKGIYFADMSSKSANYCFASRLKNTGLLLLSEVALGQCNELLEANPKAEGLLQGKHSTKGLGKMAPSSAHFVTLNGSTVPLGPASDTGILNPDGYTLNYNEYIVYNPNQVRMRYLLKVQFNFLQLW
# test.summary: fluorescence polarization; mean and SD of 3 listed KDs (27.96, 29.72, 25.09); FP buffer, salt, pH and temperature not given (as in cited ref 17); crystallization: complex purified in 20 mM Hepes pH 7.5, 300 mM NaCl, 0.5 mM TCEP; crystals
# setup.conditions: protein: recombinant; tags: His-tag construct, TEV cleaved; label: fluorescein on internal T8 of strand 2; blunt, 20 bp
reported.property: Kd (nM)
Write the number in nM without appending the unit.

Item: DNA-9 dsDNA (dsDNA, 5'-phosphate on strand 1) DNA 1: GACGCAACCCGGAGAACACA DNA 2: TGTGTTCTCCGGGTTGCGTC | Kd: 27.6
